What binding relative to P54AR4-83v2 parent was measured for each of the following?
- TARGET_ENTITY: EGFR (form used in the assay not stated) (human, UniProt P00533 25-645, limits assumed)
- METHOD_DESCRIPTION: ELISA, NEM conjugate, 100 nM

# BINDER, PROPERTY, RESULT
data = [
    ("P54AR4-83v2 S55C, NEM conjugate (designed binder, not shown: small tags and cut ends, N-ethyl maleimide (NEM) on Cys 55) LPAPKNLVVSEVTEDSARLSWDDPWAFYESFLIQYQESEKVGEAIVLTVPGSERCYDLTGLKPGTEYTVSIYGVHNVYKDTNMRGLPLSAIFTT", "binding relative to P54AR4-83v2 parent", "0 ratio"),
    ("P54AR4-83v2 V74C, NEM conjugate (designed binder, not shown: small tags and cut ends, N-ethyl maleimide (NEM) on Cys 74) LPAPKNLVVSEVTEDSARLSWDDPWAFYESFLIQYQESEKVGEAIVLTVPGSERSYDLTGLKPGTEYTVSIYGCHNVYKDTNMRGLPLSAIFTT", "binding relative to P54AR4-83v2 parent", "1.01 ratio"),
    ("P54AR4-83v2 S30C, NEM conjugate (designed binder, not shown: small tags and cut ends, N-ethyl maleimide (NEM) on Cys 30, also called 530C) LPAPKNLVVSEVTEDSARLSWDDPWAFYECFLIQYQESEKVGEAIVLTVPGSERSYDLTGLKPGTEYTVSIYGVHNVYKDTNMRGLPLSAIFTT", "binding relative to P54AR4-83v2 parent", "1.02 ratio"),
]

Moving on to the next binder.
Query: binding relative to P54AR4-83v2 parent; subject: P54AR4-83v2 P63C, NEM conjugate (designed binder, not shown: small tags and cut ends, N-ethyl maleimide (NEM) on Cys 63) LPAPKNLVVSEVTEDSARLSWDDPWAFYESFLIQYQESEKVGEAIVLTVPGSERSYDLTGLKCGTEYTVSIYGVHNVYKDTNMRGLPLSAIFTT
1.02 ratio
